Let's look at some sequences and their measured protein stability index.
# PROCEDURE TEXT: protein stability index of a GFP-peptide fusion (GPS, HEK-293T) (PSI 1-6); higher = more stable;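 also: 24-mer peptide tiles fused after GFP, lentivirally expressed, FACS-sorted into six equal bins by GFP/DsRed ratio, decoded by Illumina sequencing, PSI is the read-weighted mean bin number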
# MEASUREMENT PARAMETERS: treatment: MLN4924 1 uM, 8 h; c terminus: a fixed tail appended
// print number alone

- SEQ TEXT: "EQSLLSRWNPWSTEVPYATFTEHP [TPRG1]"
  MEASURE NAME: "protein stability index"
  VAL: 3.06
- SEQ TEXT: "ECAMETTEEQTRQERQGPAKPEVL [NECAB1]"
  MEASURE NAME: "protein stability index"
  VAL: 5.6
- SEQ TEXT: "YQRVLPLPIFTPAKMGATKEERED [TCAP]"
  MEASURE NAME: "protein stability index"
  VAL: 3.62
- SEQ TEXT: "IGGHLVRDNDHPDHSSRELSKILA [FUT8]"
  MEASURE NAME: "protein stability index"
  VAL: 3.9
- SEQ TEXT: "SSRYDDYSSSRDGYGGSRDSYSSS [RBMX]"
  MEASURE NAME: "protein stability index"
  VAL: 4.52

So, DVEDLQRDKARLLREKVEFLRSLR [NFE2L1] ? Its protein stability index was 3.18

For record QQQCHEMAERLEDSVLKGMQAASS [SDE2] the listed protein stability index is 4.2

EVAGGGTPLLIAARYGHLDVVEYL [FEM1A] yielded protein stability index of 2.32

====

# PROCEDURE TEXT: protein stability index of a GFP-peptide fusion (GPS, HEK-293T) (PSI 1-6); higher = more stable
# MEASUREMENT PARAMETERS: treatment: DMSO; c terminus: a fixed tail appended
Documented protein stability index across a set of sequences

Use these answered entries as a reference point.
- SEQ TEXT: "VSGDYYPIIYFNDYWNLQKDYYPI [CLPTM1]"
  MEASURE NAME: "protein stability index"
  VAL: 3.03
- SEQ TEXT: "GVGTSMEGASPLSERCQRQLQSLC [FANCE]"
  MEASURE NAME: "protein stability index"
  VAL: 3.9
- SEQ TEXT: "TVLAVLEDSSRDIREALHELLCCT [INTS4]"
  MEASURE NAME: "protein stability index"
  VAL: 2.43

Quick note, protein stability index for KTKAPAPDEGSDLFYDDYYEDGEV [CDC34] landed at 5.35

The sequence listed as SLVSLVLYNMDLSDDHIRVIVQLH [ZER1] has a reported protein stability index of 2.63

Form: sequence = TPDIKSHYAFRIFDFDDDGTLNRE [CIB1] ; protein stability index = 3.55

Per the records, this sequence ( HHRVQENQMDKARRHPQGAWKELD [CHGB] ) has protein stability index equal to 4.45

Noted for GPAAFVDYFERNWEPRRDMWVRFR [ZSWIM9] : its protein stability index reads 2.4

protein stability index reading for CQEYLARNARIVHLVEETRIHVLP [CPXM2] : 2.2

Sample LENSKYCRFNQDPEAVDEDRSTEP [ATE1] ; protein stability index observed: 5.5

====

# PROCEDURE TEXT: protein stability index of a GFP-peptide fusion (GPS, HEK-293T) (PSI 1-6); higher = more stable
# MEASUREMENT PARAMETERS: treatment: DMSO; c terminus: a fixed tail appended
MEASURE NAME: protein stability index
Note: the reply should be a number with no unit written.

- SEQ TEXT: "RFHRARWGLEEEDFQPREEAMLYH [P3H4]"
  VAL: 2.93
- SEQ TEXT: "LPLAYQQTSAFARQPRDELERVRV [TMEM175]"
  VAL: 4.01

Then this sequence:
Per the record, IGGHLVRDNDHPDHSSRELSKILA [FUT8] has protein stability index of 3.92
